All figures here come from paper PMC8597757.

- Test: Multiple-dose (once weekly for 3 weeks) plasma pharmacokinetics of MK-8507 tablet
- Assay type: in vivo, human
- Study conditions: human, plasma, oral, 200 mg, 200 mg tablet once weekly, wk 2, n=5; read-out: C168hr (geometric mean [95% CI])
Experimental readout: concentration at 168 h (nM)

>>> data_value("N#Cc1cc(Cl)cc(Oc2c(C(F)(F)F)ncn(Cc3cc(C(F)(F)F)c(=O)[nH]n3)c2=O)c1 [MK-8507]")
700

###

- Test: Single-dose plasma pharmacokinetics of MK-8507 (suspension, study 1; tablet, study 2)
- Assay type: in vivo
- Study conditions: human, oral, single doses 2 to 1,200 mg, range across doses, read-out: mean terminal half-life (t1/2)
Experimental readout: half-life

>>> data_value("N#Cc1cc(Cl)cc(Oc2c(C(F)(F)F)ncn(Cc3cc(C(F)(F)F)c(=O)[nH]n3)c2=O)c1")
"58 to 84 h"

###

- Test: Single-dose plasma pharmacokinetics of MK-8507 (suspension, study 1; tablet, study 2)
- Assay type: in vivo
- Study conditions: human, po, 1200 mg, single oral dose 1,200 mg, tablet, fasted, n=6, read-out: Tmax (median [min, max])
Experimental readout: Tmax (h)

>>> data_value("N#Cc1cc(Cl)cc(Oc2c(C(F)(F)F)ncn(Cc3cc(C(F)(F)F)c(=O)[nH]n3)c2=O)c1")
5

###

- Test: Single-dose plasma pharmacokinetics of MK-8507 (suspension, study 1; tablet, study 2)
- Format: in vivo
- Study conditions: human, po, 400 mg, single oral dose 400 mg, suspension, fasted, n=6, read-out: AUC0-∞ (geometric mean [95% CI])
Experimental readout: AUC(0-inf) (µM·h)

>>> data_value("N#Cc1cc(Cl)cc(Oc2c(C(F)(F)F)ncn(Cc3cc(C(F)(F)F)c(=O)[nH]n3)c2=O)c1")
770

###

- Test: Single-dose plasma pharmacokinetics of MK-8507 (suspension, study 1; tablet, study 2)
- Type: in vivo
- Study conditions: human, oral, suspension, fasted, range across doses, read-out: median Tmax
Experimental readout: Tmax

>>> data_value("N#Cc1cc(Cl)cc(Oc2c(C(F)(F)F)ncn(Cc3cc(C(F)(F)F)c(=O)[nH]n3)c2=O)c1")
"2 to 4 h"

###

- Test: Multiple-dose (once weekly for 3 weeks) plasma pharmacokinetics of MK-8507 tablet
- Type: in vivo, human
- Study conditions: human, plasma, oral, 200 mg, 200 mg tablet once weekly, wk 1, n=5/6; read-out: Tmax (median [min, max])
Experimental readout: Tmax

>>> data_value("N#Cc1cc(Cl)cc(Oc2c(C(F)(F)F)ncn(Cc3cc(C(F)(F)F)c(=O)[nH]n3)c2=O)c1")
"5 h"

###

- Test: Single-dose plasma pharmacokinetics of MK-8507 (suspension, study 1; tablet, study 2)
- Type: in vivo
- Study conditions: human, po, 2 mg, single oral dose 2 mg, suspension, fasted, n=6, read-out: AUC0–168 (geometric mean [95% CI])
Experimental readout: AUC(0-t) (µM·h)

>>> data_value("N#Cc1cc(Cl)cc(Oc2c(C(F)(F)F)ncn(Cc3cc(C(F)(F)F)c(=O)[nH]n3)c2=O)c1 [MK-8507]")
2.94

###

- Test: Multiple-dose (once weekly for 3 weeks) plasma pharmacokinetics of MK-8507 tablet
- Format: in vivo, human
- Study conditions: human, plasma, oral, 200 mg, 200 mg tablet once weekly, wk 1, n=5/6; read-out: AUC0–168 (geometric mean [95% CI])
Experimental readout: AUC(0-t) (µM·h)

>>> data_value("N#Cc1cc(Cl)cc(Oc2c(C(F)(F)F)ncn(Cc3cc(C(F)(F)F)c(=O)[nH]n3)c2=O)c1")
285

###

- Test: Multiple-dose (once weekly for 3 weeks) plasma pharmacokinetics of MK-8507 tablet
- Type: in vivo, human
- Study conditions: human, plasma, oral, 200 mg, 200 mg tablet once weekly, wk 3, n=5; read-out: Cmax (geometric mean [95% CI])
Experimental readout: Cmax (µM)

>>> data_value("N#Cc1cc(Cl)cc(Oc2c(C(F)(F)F)ncn(Cc3cc(C(F)(F)F)c(=O)[nH]n3)c2=O)c1 [MK-8507]")
5.61

###

- Test: Single-dose plasma pharmacokinetics of MK-8507 (suspension, study 1; tablet, study 2)
- Format: in vivo
- Study conditions: human, po, 1200 mg, single oral dose 1,200 mg, tablet, fasted, n=6, read-out: Apparent terminal t½ (geometric mean [%GVC]) (converted)
Experimental readout: half-life (h)

>>> data_value("N#Cc1cc(Cl)cc(Oc2c(C(F)(F)F)ncn(Cc3cc(C(F)(F)F)c(=O)[nH]n3)c2=O)c1")
68.7

###

- Test: Single-dose plasma pharmacokinetics of MK-8507 (suspension, study 1; tablet, study 2)
- Assay type: in vivo
- Study conditions: human, po, 30 mg, single oral dose 30 mg, suspension, fasted, n=6, read-out: Tmax (median [min, max])
Experimental readout: Tmax

>>> data_value("N#Cc1cc(Cl)cc(Oc2c(C(F)(F)F)ncn(Cc3cc(C(F)(F)F)c(=O)[nH]n3)c2=O)c1")
"2 h"

###

- Test: Multiple-dose (once weekly for 3 weeks) plasma pharmacokinetics of MK-8507 tablet
- Type: in vivo, human
- Study conditions: human, plasma, oral, 100 mg, 100 mg tablet once weekly, wk 3, n=6; read-out: AUC0–168 (geometric mean [95% CI])
Experimental readout: AUC(0-t) (µM·h)

>>> data_value("N#Cc1cc(Cl)cc(Oc2c(C(F)(F)F)ncn(Cc3cc(C(F)(F)F)c(=O)[nH]n3)c2=O)c1")
185

###

- Test: Single-dose plasma pharmacokinetics of MK-8507 (suspension, study 1; tablet, study 2)
- Type: in vivo
- Study conditions: human, po, 800 mg, single oral dose 800 mg, tablet, fasted, n=6, read-out: AUC0-∞ (geometric mean [95% CI])
Experimental readout: AUC(0-inf) (µM·h)

>>> data_value("N#Cc1cc(Cl)cc(Oc2c(C(F)(F)F)ncn(Cc3cc(C(F)(F)F)c(=O)[nH]n3)c2=O)c1")
1230

###

- Test: Multiple-dose (once weekly for 3 weeks) plasma pharmacokinetics of MK-8507 tablet
- Type: in vivo, human
- Study conditions: human, plasma, oral, 100 mg, 100 mg tablet once weekly, wk 1, n=6; read-out: Cmax (geometric mean [95% CI])
- Method: MK-8507 in plasma was extracted by protein precipitation and analyzed by reversed-phase chromatographic separation coupled with tandem mass spectrometric detection by Merck & Co., Inc. (West Point, PA, USA). […] The lower limit of quantitation was 1.0 ng/mL (2.03 nM) with a linear calibration range from 1.0 to 1000 ng/mL. […]
Experimental readout: Cmax (nM)

>>> data_value("N#Cc1cc(Cl)cc(Oc2c(C(F)(F)F)ncn(Cc3cc(C(F)(F)F)c(=O)[nH]n3)c2=O)c1")
2940

###

- Test: Multiple-dose (once weekly for 3 weeks) plasma pharmacokinetics of MK-8507 tablet
- Format: in vivo, human
- Study conditions: human, plasma, oral, 100 mg, 100 mg tablet once weekly, wk 1, n=6; read-out: Tmax (median [min, max])
Experimental readout: Tmax (h)

>>> data_value("N#Cc1cc(Cl)cc(Oc2c(C(F)(F)F)ncn(Cc3cc(C(F)(F)F)c(=O)[nH]n3)c2=O)c1")
3

###

- Test: Multiple-dose (once weekly for 3 weeks) plasma pharmacokinetics of MK-8507 tablet
- Type: in vivo, human
- Study conditions: human, plasma, oral, 100 mg, 100 mg tablet once weekly, wk 3, n=6; read-out: Cmax (geometric mean [95% CI])
Experimental readout: Cmax (µM)

>>> data_value("N#Cc1cc(Cl)cc(Oc2c(C(F)(F)F)ncn(Cc3cc(C(F)(F)F)c(=O)[nH]n3)c2=O)c1")
3.29

###

- Test: Multiple-dose (once weekly for 3 weeks) plasma pharmacokinetics of MK-8507 tablet
- Type: in vivo, human
- Study conditions: human, plasma, oral, 100 mg, 100 mg tablet once weekly, wk 1, n=6; read-out: C168hr (geometric mean [95% CI])
Experimental readout: concentration at 168 h (nM)

>>> data_value("N#Cc1cc(Cl)cc(Oc2c(C(F)(F)F)ncn(Cc3cc(C(F)(F)F)c(=O)[nH]n3)c2=O)c1")
320

###

- Test: Multiple-dose (once weekly for 3 weeks) plasma pharmacokinetics of MK-8507 tablet
- Format: in vivo, human
- Study conditions: human, plasma, oral, 400 mg, 100, 200, 400 mg tablet once weekly, range across doses; read-out: median time of peak concentration postdose
Experimental readout: Tmax

>>> data_value("N#Cc1cc(Cl)cc(Oc2c(C(F)(F)F)ncn(Cc3cc(C(F)(F)F)c(=O)[nH]n3)c2=O)c1")
"3 to 5 h"

###

- Test: Single-dose plasma pharmacokinetics of MK-8507 (suspension, study 1; tablet, study 2)
- Type: in vivo
- Study conditions: human, po, 400 mg, single oral dose 400 mg, suspension, fasted, n=6, read-out: Apparent terminal t½ (geometric mean [%GVC]) (converted)
Experimental readout: half-life

>>> data_value("N#Cc1cc(Cl)cc(Oc2c(C(F)(F)F)ncn(Cc3cc(C(F)(F)F)c(=O)[nH]n3)c2=O)c1 [MK-8507]")
"69.1 h"
